All figures here come from patent US5849751A.

# Tested on: release of apoB-100-associated lipoproteins from liver cells (HepG2)
# protocol summary: Inhibition of the release of apoB-100-associated lipoproteins (HepG2 cells, immunoassay)
# Assay type: cell-based
# conditions: Homo sapiens; HepG2 culture supernatant, anti-LDL immunoassay, light absorption at 450 nm vs solvent control
pIC50: −log10 of the molar value.
assay metric: pIC50

// known answers, use as guide
* Cc1cc(C)c2c3ccccc3n(Cc3ccc(C(NC(=O)C(=NO)c4ccccc4)C4CCCC4)cc3)c2n1 (racemic) | 6.52
* Cc1cc(C)c2c3ccccc3n(Cc3ccc(C(NC(=O)Cc4ccccc4)C4CCCC4)cc3)c2n1 (stereo not drawn) | 7.47
* COc1ccc(CC(=O)NC(c2ccc(Cn3c4ccccc4c4c(C)cc(C)nc43)cc2)C2CCCC2)cc1 (stereo not drawn) | 7.42

(A) Cc1cc(C)c2c3ccccc3n(Cc3ccc(C(NC(=O)C(O)c4ccccc4)C4CCCC4)cc3)c2n1 (racemic)
(B) Cc1cc(C)c2c3ccccc3n(Cc3ccc(C(NS(=O)(=O)Cc4ccccc4)C4CCCC4)cc3)c2n1 (stereo not drawn)
I'm curious whether A or B has the smaller pIC50 number. Which is it? # reply format: chosen label
B
